Would you kindly list fraction unbound at 4 h, 10 µM for each of these compounds?
Assay: Plasma protein binding in mouse at 10 uM after 4 hrs by LC/MS analysis
Format: ADME, cell-free
Settings: read-out: PPB (converted)
Answers are plain numbers.

O=[N+]([O-])c1ccc(C2=NOC(c3ccc(N4CCOCC4)cc3)C2)o1 (stereo not given) = 0.036
O=[N+]([O-])c1ccc(C2=NOC(c3ccc(N4CCOCC4)c(F)c3)C2)o1 (stereo not given) = 0.061
O=[N+]([O-])c1ccc(C2=NOC(c3ccc(N4CCCCC4)cc3)C2)o1 (stereo not given) = 0.012
O=C1COCCN1c1ccc(C2CC(c3ccc([N+](=O)[O-])o3)=NO2)cc1 (stereo not given) = 0.34

Qu. Request the reported fraction unbound at 4 h, 10 µM associated with O=[N+]([O-])c1ccc(C2=NOC(c3ccc(N4CCSCC4)cc3)C2)o1 (stereo not given)
Ans. 0.013
